- Protocol details: 24 hr in-vivo study: meloxicam plasma concentration and pharmacokinetics after oral (gavage) administration to male rats
- Condition info: male, Sprague-Dawley, rat, plasma, po, 1 mg/kg
Measured quantity: concentration at 12 hour (ng/mL)
Answers are plain numbers, in ng/mL.

Request: Suppose we examine the molecule Cc1cnc(NC(=O)C2=C(O)c3ccccc3S(=O)(=O)N2C)s1 [Meloxicam, reference compound] ; what concentration at 12 hour value has been reported?
Response: 460

###

- Protocol details: 4 hr in-vivo study: meloxicam plasma concentration after oral delivery to rats
- Condition info: rat, time 240 min
Provide the reported meloxicam plasma concentration of each item.
One number for each entry, in µg/mL.

Consider the following illustrative entries.
INSERT INTO results (compound_string, endpoint_value) VALUES
  ('Cc1cnc(NC(=O)C2=C(O)c3ccccc3S(=O)(=O)N2C)s1.Cc1cnc(NC(=O)C2=C(O)c3ccccc3S(=O)(=O)N2C)s1.O=C(O)CCC(=O)O', 43.47),
  ('Cc1cnc(NC(=O)C2=C(O)c3ccccc3S(=O)(=O)N2C)s1.Cc1cnc(NC(=O)C2=C(O)c3ccccc3S(=O)(=O)N2C)s1.O=C(O)CC(O)C(=O)O', 49.72),
  ('Cc1cnc(NC(=O)C2=C(O)c3ccccc3S(=O)(=O)N2C)s1.O=C(O)c1ccc2ccccc2c1O', 52.24),
  ('Cc1cnc(NC(=O)C2=C(O)c3ccccc3S(=O)(=O)N2C)s1.Cc1cnc(NC(=O)C2=C(O)c3ccccc3S(=O)(=O)N2C)s1.O=C(O)/C=C/C(=O)O', 30.23),
  ('Cc1cnc(NC(=O)C2=C(O)c3ccccc3S(=O)(=O)N2C)s1.Cc1cnc(NC(=O)C2=C(O)c3ccccc3S(=O)(=O)N2C)s1.O=C(O)CCCCC(=O)O', 47.85);

Hi team, please reply with meloxicam plasma concentration for each item in this list.
1. Cc1cnc(NC(=O)C2=C(O)c3ccccc3S(=O)(=O)N2C)s1.O=C(O)/C=C\C(=O)O
2. Cc1cnc(NC(=O)C2=C(O)c3ccccc3S(=O)(=O)N2C)s1.O=C(O)c1ccccc1O
3. Cc1cnc(NC(=O)C2=C(O)c3ccccc3S(=O)(=O)N2C)s1.O=C(O)CO

Response:
1: 42.12; 2: 49.13; 3: 34.50

Hi team, please reply with meloxicam plasma concentration for each item in this list.
1. Cc1cnc(NC(=O)C2=C(O)c3ccccc3S(=O)(=O)N2C)s1.O=C(O)CCc1ccccc1
2. Cc1cnc(NC(=O)C2=C(O)c3ccccc3S(=O)(=O)N2C)s1.Cc1cnc(NC(=O)C2=C(O)c3ccccc3S(=O)(=O)N2C)s1.O=C(O)C[C@H](O)C(=O)O
3. Cc1cnc(NC(=O)C2=C(O)c3ccccc3S(=O)(=O)N2C)s1.O=C(O)CCCC(=O)O
4. Cc1cnc(NC(=O)C2=C(O)c3ccccc3S(=O)(=O)N2C)s1.O=C(O)c1ccccc1

Response:
1: 45.70; 2: 38.59; 3: 55.35; 4: 42.51

###

- Protocol details: 24 hr in-vivo study: meloxicam plasma concentration and pharmacokinetics after oral (gavage) administration to male rats
- Condition info: male rats, 1 mg/kg oral, mean N = 5
Measured quantity: AUC (area under the plasma concentration-time curve at 24 h) (ng·h/mL)
Give bare numbers, in ng·h/mL.

Hi team, please reply with AUC (area under the plasma concentration-time curve at 24 h) for each item in this list.
1. Cc1cnc(NC(=O)C2=C(O)c3ccccc3S(=O)(=O)N2C)s1.O=C(O)c1ccc2ccccc2c1O
2. Cc1cnc(NC(=O)C2=C(O)c3ccccc3S(=O)(=O)N2C)s1.O=C(O)c1ccccc1O
3. Cc1cnc(NC(=O)C2=C(O)c3ccccc3S(=O)(=O)N2C)s1.Cc1cnc(NC(=O)C2=C(O)c3ccccc3S(=O)(=O)N2C)s1.O=C(O)CCC(=O)O

Response:
1: 62500; 2: 29600; 3: 28400

Request: Suppose we examine the molecule Cc1cnc(NC(=O)C2=C(O)c3ccccc3S(=O)(=O)N2C)s1.O=C(O)/C=C\C(=O)O ; what AUC (area under the plasma concentration-time curve at 24 h) value has been reported?
Response: 25300

###

- Protocol details: 24 hr in-vivo study: meloxicam plasma concentration and pharmacokinetics after oral (gavage) administration to male rats
- Condition info: male, Sprague-Dawley, rat, plasma, po, 1 mg/kg
Measured quantity: Cmax (ng/mL)
Answers are plain numbers, in ng/mL.

Request: Suppose we examine the molecule Cc1cnc(NC(=O)C2=C(O)c3ccccc3S(=O)(=O)N2C)s1 [Meloxicam, reference compound] ; what Cmax value has been reported?
Response: 590

###

- Protocol details: 24 hr in-vivo study: meloxicam plasma concentration and pharmacokinetics after oral (gavage) administration to male rats
- Condition info: male, Sprague-Dawley, rat, plasma, po, 1 mg/kg
Measured quantity: concentration at 8 hour (ng/mL)
One number for each entry, in ng/mL.

Request: Suppose we examine the molecule Cc1cnc(NC(=O)C2=C(O)c3ccccc3S(=O)(=O)N2C)s1 [Meloxicam, reference compound] ; what concentration at 8 hour value has been reported?
Response: 530

###

- Protocol details: IV comparator group, meloxicam pharmacokinetics in rats
- Type: in vivo
- Condition info: Sprague-Dawley, rat, plasma, 1 mg/kg, PEG400:DMSO formulation, read-out: MRT (mean residence time)
Measured quantity: MRT (h)
Numbers only, in h.

Request: Suppose we examine the compound Cc1cnc(NC(=O)C2=C(O)c3ccccc3S(=O)(=O)N2C)s1 [Meloxicam, reference compound] ; what MRT value has been reported?
Response: 14.7

###

- Protocol details: 24 hr in-vivo study: meloxicam plasma concentration and pharmacokinetics after oral (gavage) administration to male rats
- Condition info: male rats, 1 mg/kg oral, N = 5, 0.25 hour
Measured quantity: meloxicam plasma concentration (µg/mL)
Give bare numbers, in µg/mL.

Consider the following illustrative entries.
INSERT INTO measurements (compound_string, measured_quantity, units_label, endpoint_value) VALUES
  ('Cc1cnc(NC(=O)C2=C(O)c3ccccc3S(=O)(=O)N2C)s1.O=C(O)/C=C\C(=O)O', 'meloxicam plasma concentration', 'µg/mL', 0.62),
  ('Cc1cnc(NC(=O)C2=C(O)c3ccccc3S(=O)(=O)N2C)s1.O=C(O)c1ccc2ccccc2c1O', 'meloxicam plasma concentration', 'µg/mL', 2.1),
  ('Cc1cnc(NC(=O)C2=C(O)c3ccccc3S(=O)(=O)N2C)s1.O=C(O)c1ccccc1O', 'meloxicam plasma concentration', 'µg/mL', 0.7675);

Kindly review the next compound as well.
Request: Suppose we examine the compound Cc1cnc(NC(=O)C2=C(O)c3ccccc3S(=O)(=O)N2C)s1.Cc1cnc(NC(=O)C2=C(O)c3ccccc3S(=O)(=O)N2C)s1.O=C(O)CCC(=O)O ; what meloxicam plasma concentration value has been reported?
Response: 0.23

###

- Protocol details: 24 hr in-vivo study: meloxicam plasma concentration and pharmacokinetics after oral (gavage) administration to male rats
- Condition info: male, Sprague-Dawley, rat, plasma, po, 1 mg/kg
Measured quantity: concentration at 0.5 hour (µg/mL)
Give bare numbers, in µg/mL.

Request: Suppose we examine the compound Cc1cnc(NC(=O)C2=C(O)c3ccccc3S(=O)(=O)N2C)s1 [Meloxicam, reference compound] ; what concentration at 0.5 hour value has been reported?
Response: 0.28

###

- Protocol details: 24 hr in-vivo study: meloxicam plasma concentration and pharmacokinetics after oral (gavage) administration to male rats
- Condition info: male, Sprague-Dawley, rat, plasma, po, 1 mg/kg
Measured quantity: concentration at 1 hour (ng/mL)
One number for each entry, in ng/mL.

Request: Suppose we examine the compound Cc1cnc(NC(=O)C2=C(O)c3ccccc3S(=O)(=O)N2C)s1 [Meloxicam, reference compound] ; what concentration at 1 hour value has been reported?
Response: 390

###

Provide the reported Time to Reach 0.59 μg/ml of each item.
- Protocol details: 24 hr in-vivo study: meloxicam plasma concentration and pharmacokinetics after oral (gavage) administration to male rats
- Condition info: male rats, 1 mg/kg oral; calculated by interpolation of time vs. concentration data

Consider the following illustrative entries.
INSERT INTO results (molecule, measured_quantity, endpoint_value) VALUES
  ('Cc1cnc(NC(=O)C2=C(O)c3ccccc3S(=O)(=O)N2C)s1 [Meloxicam, reference compound]', 'Time to Reach 0.59 μg/ml', '270.0 min'),
  ('Cc1cnc(NC(=O)C2=C(O)c3ccccc3S(=O)(=O)N2C)s1.O=C(O)/C=C\C(=O)O', 'Time to Reach 0.59 μg/ml', '13.4 min'),
  ('Cc1cnc(NC(=O)C2=C(O)c3ccccc3S(=O)(=O)N2C)s1.O=C(O)c1ccccc1O', 'Time to Reach 0.59 μg/ml', '11.3 min'),
  ('Cc1cnc(NC(=O)C2=C(O)c3ccccc3S(=O)(=O)N2C)s1.Cc1cnc(NC(=O)C2=C(O)c3ccccc3S(=O)(=O)N2C)s1.O=C(O)CCC(=O)O', 'Time to Reach 0.59 μg/ml', '45.1 min');

Kindly review the next molecule as well.
Request: Suppose we examine the molecule Cc1cnc(NC(=O)C2=C(O)c3ccccc3S(=O)(=O)N2C)s1.O=C(O)c1ccc2ccccc2c1O ; what Time to Reach 0.59 μg/ml value has been reported?
Response: 6.5 min
